- Method Description: splicing luciferase reporter signal modulators, primary screen, spliceosome inhibition project, cell-based, HEK293, splice +/- reporter (AID 1101);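 also: HEK293 cells carrying a splicing-competent luciferase reporter gene; test concentration not given here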
- Run Parameters: luminescence, 24 h, higher = more signal, called active from +8 up or from −8 down
The source made the active and inactive calls.
Readout: z-score

Some molecules with recorded z-score:
For the molecule O=C1[C@H]2[C@H]3[C@H](O)[C@H](O)CC(=NO[C@@H]4O[C@H](CO)[C@@H](O)[C@H](O)[C@H]4O)[C@H]3CC[C@H]2C(=O)N1c1cccc(Oc2ccccc2)c1 , report z-score.
0.0512 (inactive)

Give the value of z-score reported for the following: CO[C@@H]1COC(=O)[C@@H](C)COC(=O)[C@@H](C)NC(=O)CC=C[C@@H]1C
-2.29 (inactive)

Identify measured z-score associated with O=C1OCCC=C1C(O)CCc1ccccc1 (stereo not drawn)
-0.278 (inactive)

State its z-score: CCCCC#C[C@@H]1C=C[C@H](OC(C)=O)[C@@H](COC(C)=O)O1
1.07 (inactive)

Quickly give me recorded z-score for Cc1cc2c(nc1C)CCCCN2CC(C)ON=C1[C@H]2CCn3c(=O)n(-c4ccccc4)c(=O)n3[C@H]2[C@H](O)[C@@H]2O[C@H]12 (stereo partly drawn)
0.718 (inactive)

Provide only the value of recorded z-score for CO[C@H]1COC(=O)CC=C[C@H](C)[C@@H](OC)COC(=O)[C@@H](C)NC(=O)CC=C[C@@H]1C
-0.653 (inactive)

Need z-score for each of these molecules.
1. C[C@@H](c1ccccc1)N1C(=O)[C@H]2[C@H]3[C@H](O)[C@H](O)CC(=NO[C@@H]4O[C@H](CO)[C@@H](O)[C@H](O)[C@H]4O)[C@@H]3CC[C@H]2C1=O
2. CC(C)=CCCC(C)=CCON=C1C[C@@H](O)[C@@H](O)[C@@H]2[C@@H]3C(=O)N(C[C@@H]4CCCO4)C(=O)[C@@H]3CC[C@H]12

1: 0.119 (inactive); 2: 0.91 (inactive)

---

- Method Description: mitochondrial membrane potential change in A549 cells, profiling panel, cell-based, JC-1 fluorescence, basal, 24 h, 100 nL (AID 1138);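 also: A549 lung adenocarcinoma cells under basal conditions with no added stimulus; test concentration not given here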
- Run Parameters: higher = more signal
Lab note: compare z-score against 0.2. Equal or greater, write 1. Smaller, write 0.

These solved cases illustrate the format of a correct answer.
Reported z-score reaches at least 0.2 for O=C1C[C@@H](O)[C@@H](O)[C@@H]2[C@@H]3C(=O)N(c4cccc(Oc5ccccc5)c4)C(=O)[C@@H]3CC[C@H]12 ?
1

Hi, just wondering whether O=c1n(Cc2cc3c(cc2Cl)OCO3)c(=O)n2n1CC[C@@H]1C(=NOCc3ccccc3)[C@H]3O[C@H]3[C@@H](O)[C@@H]12 shows z-score of 0.2 or higher.
1

Please check the record O=C(NN=C1C[C@@H](O)[C@@H](O)[C@@H]2[C@@H]3C(=O)N(C4CCCCC4)C(=O)[C@@H]3CC[C@@H]12)OCc1ccccc1 and state if its z-score is at or above 0.2.
0

Has O=C1C[C@@H](O)[C@@H](O)[C@@H]2[C@@H]3C(=O)N(C[C@@H]4CCCO4)C(=O)[C@@H]3CC[C@H]12 a recorded z-score greater than or equal to 0.2?
1

Can CC(C)(C)N1C(=O)[C@H]2[C@H]3[C@H](O)[C@H](O)CC(=NO[C@@H]4O[C@H](CO)[C@@H](O)[C@H](O)[C@H]4O)[C@H]3CC[C@H]2C1=O be said to have z-score at or above 0.2?
0

Does CCOC(=O)[C@H](Cc1ccccc1)NC(=O)CCC1CC(OC(=O)NCCc2ccc(F)cc2)CC2(CCCC(COC(=O)NCC3CCCCC3)O2)O1 (some centres not stated) have a reported z-score of at least 0.2?
1

New cases:
Please tell me: is the molecule C#CCCCON=C1C[C@@H](O)[C@@H](O)[C@@H]2[C@@H]3C(=O)N(C(C)(C)C)C(=O)[C@@H]3CC[C@H]12 at or over 0.2 in terms of z-score?
0

---

- System: Plasmodium falciparum Sir2 (PF13_0152, Sir2A)
- Method Description: pfSir2 binders on small-molecule microarrays, primary screen, biochemical, small-molecule microarray, 635 nm fluorescence (AID 1098);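 also: score merges spot fluorescence intensity with its signal-to-noise ratio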
- Run Parameters: small-molecule microarray binding, fluorescence 635 nm; higher = more signal
Readout: composite z-score
Numbers only.

Some solved entries appear below for comparison.
Given CCN1C(=O)[C@H]2[C@H]3[C@H](O)[C@H](O)CC(=NO[C@@H](C)c4cn([C@H](CO)Cc5ccccc5)nn4)[C@@H]3CC[C@H]2C1=O , report its composite z-score on Plasmodium falciparum Sir2 (PF13_0152, Sir2A).
0.774

Specify composite z-score for O=C1C[C@@H](O)[C@@H](O)[C@@H]2[C@@H]3C(=O)N(C[C@@H]4CCCO4)C(=O)[C@@H]3CC[C@H]12 , system Plasmodium falciparum Sir2 (PF13_0152, Sir2A).
0.379

Give composite z-score for each listed item.
1. C[C@H]1CC[C@H]2C(=O)OC(CO)CN2[C@@H]1c1ccc(Br)cc1 (stereo not given in full)
2. C#CCCCON=C1C[C@@H](O)[C@@H](O)[C@@H]2[C@@H]3C(=O)N(CCC(=O)OCC)C(=O)[C@@H]3CC[C@H]12
3. C#CCCCON=C1C[C@@H](O)[C@@H](O)[C@@H]2[C@@H]3C(=O)N(c4cccc(Oc5ccccc5)c4)C(=O)[C@@H]3CC[C@H]12
4. CCN1C(=O)[C@H]2[C@H]3[C@H](O)[C@H](O)CC(=NOC[C@H]4O[C@H](c5ccccc5)C=C[C@@H]4Oc4ccc(OC)cc4)[C@@H]3CC[C@H]2C1=O
5. CC(C)=CCCC(C)=CCON=C1C[C@@H](O)[C@@H](O)[C@@H]2[C@@H]3C(=O)N(C(C)(C)C)C(=O)[C@@H]3CC[C@H]12
6. CCOC(=O)[C@H](CC(C)C)NC(=O)CCC1CC(OC(=O)NCc2ccc3c(c2)OCO3)CC2(CCCC(COC(=O)NCC3CCCCC3)O2)O1 (stereo not given in full)

[-0.273, 1, 1.06, 0.605, 0.0059, 0.74]

---

- System: Human papillomavirus type 1a E7 protein (residues 1-88)
- Method Description: HPV1a E7 small-molecule binders, primary screen, biochemical, small-molecule microarray, residues 1-88, 635 nm (AID 1129)
- Run Parameters: small-molecule microarray binding, fluorescence 635 nm; higher = more signal
Hi there, I'd appreciate the recorded composite z-score for every entry that follows.

Supply recorded composite z-score for CCOC(=O)[C@H](CC(C)C)NC(=O)CCC1CC(OC(=O)NCc2cccc3ccccc23)CC2(CCCC(COC(=O)NCc3ccncc3)O2)O1 (some centres not stated) here.
1.19

Using the record for CO[C@H]1COC(=O)CC=C[C@H](C)[C@@H](OC)COC(=O)[C@@H](C)COC(=O)CC=C[C@@H]1C , state its measured composite z-score.
-0.699

Using the record for CC(CCN1CCc2nc(-c3ccccc3)c(-c3ccccc3)cc2C1)=NOC[C@@H](O)[C@H]1O[C@@H]2OC(C)(C)O[C@@H]2[C@H]1O , state its measured composite z-score.
0.94

Please give the documented composite z-score of CC(CCN1CCCc2nc(C)c(C)cc21)=NO[C@@H](C)c1cc(-c2c(C)cc(C)cc2C)no1
0.314

Give composite z-score for all compounds that follow.
1. CC(C)=CCCC(C)=CCON=C1C[C@@H](O)[C@@H](O)[C@@H]2[C@@H]3C(=O)N(Cc4ccccc4)C(=O)[C@@H]3CC[C@@H]12
2. CC(CCN1CCCCc2nc(C)c(C)cc21)=NOC[C@@H](O)COCc1ccco1
3. COc1cccc([C@H]2Oc3ccc(OC)cc3C(=NOC[C@@H](C)[C@H](OCc3ccccc3)C(C)C)[C@@H]2O)c1

1: -0.369; 2: -0.91; 3: 0.321

---

- Method Description: COS7 lysate on small-molecule microarray, probe aHis, 635 nm (AID 1123);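 also: z-score combines 667nm fluorescence intensity with signal-to-noise per printed compound spot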
- Run Parameters: COS7 cell lysate, fluorescence, higher = more signal
Tag: class 1 if measured composite z-score is not below 0.9, class 0 if it is.

Reference set (3 entries):
Does the compound COC(=O)[C@H]1O[C@@H](c2c(OC)c(OC)c(C)c(OC)c2OC)[C@H](C)[C@@H](O)[C@H]1C have recorded composite z-score that is 0.9 or more?
class 1

Dear colleague, could you confirm whether CC(C)=CCCC(C)=CCON=C1C[C@@H](O)[C@@H](O)[C@@H]2[C@@H]3C(=O)N(c4ccc(F)cc4F)C(=O)[C@@H]3CC[C@H]12 has composite z-score at or above 0.9?
class 1

Threshold query (composite z-score >= 0.9) on COc1ccc(C#C[C@@H]2C=C[C@H](OC(C)=O)[C@@H](COC(C)=O)O2)cc1
class 0

Continuing:
Threshold query (composite z-score >= 0.9) on COC(=O)CC=C[C@@H](C)[C@@H](C=NOC[C@@H](O)[C@H]1O[C@@H]2OC(C)(C)O[C@@H]2[C@H]1O)NS(=O)(=O)c1ccc(C)cc1
class 0

Does composite z-score meet or surpass 0.9 for CC(CCN1CCCc2nc(C)c(C)cc21)=NO[C@@H](C)c1cc(-c2c(C)cc(C)cc2C)no1 ?
class 0

Is composite z-score for CC(=O)O[C@H]1C2=CO[C@H](C)[C@H]3[C@H]4C5=C([C@H](O)[C@H]6O[C@H]6C5=O)[C@H](OC4C)[C@@]23C(=O)[C@@H]2O[C@@H]21 (stereo partly drawn) at or above 0.9?
class 0

Form field: composite z-score at least 0.9? Entry: O=C1CCCC=C1C(O)CCCCBr (stereo not drawn)
class 1
